assay_text: Mammalian cell growth inhibition assay (MTT cytotoxicity)
Type: cell-based, Human
assay_conditions: human; CCRF-CEM cells, 72 hr, MTT; read-out: Cytotoxicity IC50 (antiproliferative effect)
measurement_kind: IC50 at 72 h (nM)
The figure you give is taken to be in nM; do not add the unit.

Consider the compound Nc1ccn([C@@H]2O[C@H](CO)[C@@H](O)C2(F)F)c(=O)n1 [Gemcitabine, 2′-deoxy-2′,2′-difluorocytidine, reference compound] and give its recorded IC50 at 72 h. 35

Consider the compound Nc1ccn([C@@H]2O[C@H](COP(=O)(O)CP(=O)(O)O)[C@@H](O)C2(F)F)c(=O)n1 and give its recorded IC50 at 72 h. 4800

###

assay_text: Compound toxicity in CEM-SS cells (MTS staining)
Assay type: cell-based
assay_conditions: human, read-out: CEM-SS TC50
Procedure: ollowing paper: Structure-Activity and Cross-Resistance unodeficiency Virus Type 1-Specific ckheit, Jr. et al., Antimicrobial Agents and s were evaluated in CEM-SS cell cultures V-1RF at an MOI of approximately 0.01. At he soluble tetrazolium-based dye MTS viability and quantify compound toxicity of metabolically active cells to yield a soluble analysis of cell viability and compound […]
measurement_kind: CC50

Consider the compound [BH3-][P+](O)(OCC1OC(n2cc(C)c(=O)[nH]c2=O)CC1N=[N+]=[N-])OP(=O)(O)C(F)(F)P(=O)(O)O (single isomer, unassigned) [Compound 27-isomer 1] and give its recorded CC50. > 200 µM

###

assayed_target: Ribonucleotide Reductase (RNR R1/R2) (Escherichia coli, UniProt P00452)
Sequence (P69924 2-376): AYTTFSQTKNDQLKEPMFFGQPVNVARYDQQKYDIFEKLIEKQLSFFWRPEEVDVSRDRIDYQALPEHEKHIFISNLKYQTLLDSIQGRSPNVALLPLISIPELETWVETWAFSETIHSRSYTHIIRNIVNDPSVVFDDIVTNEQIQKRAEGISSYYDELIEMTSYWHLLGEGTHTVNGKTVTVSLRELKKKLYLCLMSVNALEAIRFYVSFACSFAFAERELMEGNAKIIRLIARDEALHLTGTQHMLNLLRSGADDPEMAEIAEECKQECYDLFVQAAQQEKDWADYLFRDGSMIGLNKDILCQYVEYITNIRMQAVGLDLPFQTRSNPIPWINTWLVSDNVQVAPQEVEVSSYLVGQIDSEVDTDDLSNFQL
Sequence (P00452 whole entry): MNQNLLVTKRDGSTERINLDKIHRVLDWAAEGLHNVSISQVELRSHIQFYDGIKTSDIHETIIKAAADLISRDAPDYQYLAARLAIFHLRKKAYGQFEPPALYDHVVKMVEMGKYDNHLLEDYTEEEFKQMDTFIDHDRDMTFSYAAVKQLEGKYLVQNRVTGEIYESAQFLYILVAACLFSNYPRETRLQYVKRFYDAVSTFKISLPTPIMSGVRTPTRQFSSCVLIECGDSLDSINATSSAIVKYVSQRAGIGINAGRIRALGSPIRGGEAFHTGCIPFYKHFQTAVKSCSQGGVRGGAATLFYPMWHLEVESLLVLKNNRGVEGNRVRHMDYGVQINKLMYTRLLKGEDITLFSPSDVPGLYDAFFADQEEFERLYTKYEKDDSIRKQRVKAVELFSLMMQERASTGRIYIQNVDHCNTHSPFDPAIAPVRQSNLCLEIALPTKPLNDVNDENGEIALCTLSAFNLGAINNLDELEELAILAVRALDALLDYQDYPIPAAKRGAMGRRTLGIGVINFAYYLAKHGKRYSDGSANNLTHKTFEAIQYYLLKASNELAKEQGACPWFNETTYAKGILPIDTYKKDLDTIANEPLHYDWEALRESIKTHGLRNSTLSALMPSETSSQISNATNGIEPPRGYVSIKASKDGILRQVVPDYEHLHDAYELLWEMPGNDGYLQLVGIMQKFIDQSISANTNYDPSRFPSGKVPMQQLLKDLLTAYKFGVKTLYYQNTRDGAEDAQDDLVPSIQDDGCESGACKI
assay_text: Ribonucleotide Reductase inhibition assay (coupled NADPH oxidation)
Assay type: biochemical
measurement_kind: pIC50
# pIC50 is unitless: minus log10 of the molar concentration; print number only

Give pIC50 only, for Nc1ccn([C@@H]2O[C@H](COP(=O)(O)NP(=O)(O)O)[C@@H](O)C2(F)F)c(=O)n1 , using Ribonucleotide Reductase (RNR R1/R2) (Escherichia coli, UniProt P00452) data. 4.90

###

assayed_target: HIV Reverse Transcriptase (Type B, 66 kDa subunit) (Human immunodeficiency virus type 1 group M subtype B)
Construct: purified HIV Reverse Transcriptase (Type B, 66 kDa subunit)
assay_text: HIV Reverse Transcriptase inhibition assays (RNA-directed DNA polymerization, PicoGreen fluorescence)
assay_conditions: Table 1; template (homopolymer or heteropolymer RNA) not stated; read-out: Ki, Inhibition of HIV Reverse Transcriptase by Nucleotide Mimics
measurement_kind: log10(Ki) (log10 of the value in nM)
The base-10 logarithm of Ki, taken with Ki in nM, is what appears here.

Consider the compound BP(=O)(OC[C@H]1O[C@@H](n2cc(C)c(=O)[nH]c2=O)C[C@H]1N=[N+]=[N-])OP(=O)(O)C(F)(F)P(=O)(O)Oc1ccccc1 (some centres unmarked) and give its recorded log10(Ki). 2.05

Consider the compound [BH3-][P+](O)(OCC1OC(n2cc(C)c(=O)[nH]c2=O)CC1N=[N+]=[N-])OP(=O)(O)C(F)(F)P(=O)(O)O (single isomer, unassigned) [Compound 27-isomer 2] and give its recorded log10(Ki). 1.79

Consider the compound [BH3-][P+](O)(OCC1OC(n2cc(C)c(=O)[nH]c2=O)CC1N=[N+]=[N-])OP(=O)(O)C(F)(F)P(=O)(O)O (single isomer, unassigned) [Compound 27-isomer 1] and give its recorded log10(Ki). 0.90

Consider the compound BP(=O)(OC[C@H]1O[C@@H](n2cc(C)c(=O)[nH]c2=O)C[C@@H]1N=[N+]=[N-])OP(=O)(O)C(F)P(=O)(O)O (some centres unmarked) and give its recorded log10(Ki). 1.43

Consider the compound BP(=O)(OC[C@@H]1O[C@H](n2cc(C)c(=O)[nH]c2=O)C[C@H]1N=[N+]=[N-])OP(=O)(O)C(Cl)(Cl)P(=O)(O)O (single isomer, unassigned; isomer 1) [Compound 26-isomer 1] and give its recorded log10(Ki). 1.97

Consider the compound Cc1cn(C2CC(N=[N+]=[N-])C(COP(O)(=S)OP(=O)(O)C(F)(F)P(=O)(O)O)O2)c(=O)[nH]c1=O (centres unmarked) and give its recorded log10(Ki). 1.95

Consider the compound Cc1cn([C@H]2C[C@H](N=[N+]=[N-])[C@@H](COP(=O)(O)NP(=O)(O)O)O2)c(=O)[nH]c1=O and give its recorded log10(Ki). 3.64

Consider the compound [BH3-][P+](O)(OCC1OC(n2cc(C)c(=O)[nH]c2=O)CC1N=[N+]=[N-])OP(=O)(O)C(Cl)(Cl)P(=O)(O)O (single isomer, unassigned) [Compound 26-isomer 2] and give its recorded log10(Ki). 1.87

###

Would you kindly list MIC for each of these compounds?
Tested on: Escherichia coli
assay_text: Antimicrobial assay, minimal inhibitory concentration
Type: cell-based
assay_conditions: Escherichia coli, value in brackets beside the μg/ml value; read-out: E. coli MIC
Method: To examine the antimicrobial potential of the nucleotide mimics of the present invention an assay was employed that allowed the screening of a large number of compounds simultaneously. […] The plates were incubated overnight at 37° C. and then examined spectrophotometrically at 600 nm to determine the minimum concentration of each compound that inhibited replication of bacteria as determined by no increase in absorbance at 600 nm.
The figure you give is taken to be in µM; do not add the unit.

Give MIC only, for [BH3-][P+](O)(OCC1OC(n2cc(C)c(=O)[nH]c2=O)CC1N=[N+]=[N-])OP(=O)(O)C(Cl)(Cl)P(=O)(O)O (single isomer, unassigned) [Compound 26-isomer 2] , using Escherichia coli data. 17.5

Give MIC only, for Cc1cn([C@H]2C[C@@H](N=[N+]=[N-])[C@@H](COP(=O)(O)NP(=O)(OCCSC(=O)C(C)(C)C)OCCSC(=O)C(C)(C)C)O2)c(=O)[nH]c1=O , using Escherichia coli data. 28

Give MIC only, for [BH3-][P+](O)(OCC1OC(n2cc(C)c(=O)[nH]c2=O)CC1N=[N+]=[N-])OP(=O)(O)C(F)(F)P(=O)(O)O (single isomer, unassigned) [Compound 27-isomer 1] , using Escherichia coli data. 111

Give MIC only, for Cc1cn([C@H]2C[C@H](N=[N+]=[N-])[C@@H](CO)O2)c(=O)[nH]c1=O [AZT, 3′-azido-3′-deoxythymidine, reference compound] , using Escherichia coli data. 7.5

###

assayed_target: purified bovine brain tubulin
assay_text: Assay for inhibition of microtubule (tubulin) polymerization
assay_conditions: 50 μM GTP, 37° C.; read-out: Ki, Inhibition of Tubulin Polymerization by Nucleotide Mimics
Would you kindly list Ki for each of these compounds?
The figure you give is taken to be in µM; do not add the unit.

Consider the compound Nc1nc2c(ncn2[C@@H]2O[C@H](COP(=O)(O)OP(=O)(O)O)[C@@H](O)[C@H]2O)c(=O)[nH]1 [Guanosine 5′-diphosphate] and give its recorded Ki. 15.3

Consider the compound Nc1nc2c(ncn2[C@@H]2O[C@H](COP(=O)(O)NP(=O)(O)O)[C@@H](O)[C@H]2O)c(=O)[nH]1 [Guanosine 5′-imidodiphosphate] and give its recorded Ki. 5.7

Consider the compound Nc1ccn([C@@H]2O[C@H](COP(=O)(O)CCP(=O)(O)O)[C@@H](O)C2(F)F)c(=O)n1 and give its recorded Ki. 15.7

Consider the compound Nc1ccn([C@@H]2O[C@H](COP(=O)(O)OP(=O)(O)O)[C@@H](O)C2=CF)c(=O)n1 and give its recorded Ki. 19.4

###

assay_text: in vitro
assay_conditions: human, pH 7.4
Would you kindly list half-life at 500 μM for each of these compounds?

Consider the compound [BH3-][P+](O)(OCC1OC(n2cc(C)c(=O)[nH]c2=O)CC1N=[N+]=[N-])OP(=O)(O)C(Cl)(Cl)P(=O)(O)O (single isomer, unassigned) [Compound 26-isomer 2] and give its recorded half-life at 500 μM. > 48 h

Consider the compound [BH3-][P+](O)(OCC1OC(n2cc(C)c(=O)[nH]c2=O)CC1N=[N+]=[N-])OP(=O)(O)C(F)(F)P(=O)(O)O (single isomer, unassigned) [Compound 27-isomer 1] and give its recorded half-life at 500 μM. > 48 h

###

assay_text: Serum stability assessment
assay_conditions: bovine, 50% fetal calf serum, Half-Life, Serum Half-Lives of Gemcitibine Diphosphate Mimics and Their Prodrugs, Table 8, 37° C., 500 μM; time points through 48 hours
measurement_kind: half-life at 500 μM (h)
The figure you give is taken to be in h; do not add the unit.

Consider the compound Nc1ncnc2c1ncn2[C@@H]1O[C@H](COP(=O)(O)OP(=O)(O)OP(=O)(O)O)[C@@H](O)[C@H]1O [Adenosine Triphosphate, reference compound] and give its recorded half-life at 500 μM. 2.5

###

Test system: CCRF-CEM cells
assay_text: Mammalian cell growth inhibition assay (MTT cytotoxicity)
Format: cell-based, Human
measurement_kind: pIC50
# pIC50 is unitless: minus log10 of the molar concentration; print number only

Consider the compound CC(C)(C)C(=O)SCCOP(=O)(CP(=O)(OCCSC(=O)C(C)(C)C)OCC1OC(n2ccc(N)nc2=O)C(F)(F)C1O)OCCSC(=O)C(C)(C)C (stereo not shown) [Compound 77] and give its recorded pIC50. 7.00
